- assay.name: in vitro
- reported.conditions: African green monkey (Cercopithecus aethiops)
- Method: U937 cells (CRL-1593^TM) were isolated from human histiocytic lymphoma; Vero cells (CCL-81^TM) were derived from the kidney of the African green monkey, Cercopithecus aethiops; HepG2 (HB-8065^TM) cells were derived from human liver tissue, and CAD-R1 cells, a subclone, were derived from mouse neuronal cells. […] The percentage of viability (%V) was calculated using Equation 1, where the optical density (OD) of unexposed cells (negative control) corresponds to 100% of viability. […]
This section presents molecules with their documented CC50 values.

{"molecule": "COc1cc2c(cc1OC)[C@@H]1C(=O)c3ccc4c(c3O[C@@H]1CO2)C[C@H](C1(C)CO1)O4 (stereo partly drawn)", "CC50": "81.3 µM"}
{"molecule": "C[C@@H]1[C@H](O)[C@@H](C)/C=C/C=C/C=C/C=C/C=C/C=C/C=C/[C@H](O[C@@H]2O[C@H](C)[C@@H](O)[C@H](N)[C@@H]2O)C[C@@H]2O[C@](O)(C[C@@H](O)C[C@@H](O)[C@H](O)CC[C@@H](O)C[C@@H](O)CC(=O)O[C@H]1C)C[C@H](O)[C@H]2C(=O)O [Amphotericin B, reference compound]", "CC50": "15.6 µM"}
{"molecule": "C=C(C)[C@H]1Cc2c(ccc3c2O[C@@H]2COc4cc(OC)c(OC)cc4[C@@H]2C3O)O1 (stereo partly drawn)", "CC50": "284 µM"}
{"molecule": "COc1cc2c(cc1OC)C1Cc3ccc4c(c3O[C@@H]1CO2)C[C@H](C(C)C)O4 (stereo partly drawn)", "CC50": "> 476 µM"}
{"molecule": "C=C(C)[C@H]1Cc2c(ccc3c2O[C@@H]2COc4cc(OC)c(OC)cc4[C@@H]2C3=O)O1", "CC50": "> 508 µM"}
{"molecule": "COc1cccc2c1C(=O)c1c(O)c3c(c(O)c1C2=O)C[C@@](O)(C(=O)CO)C[C@@H]3O[C@H]1C[C@H](N)[C@H](O)[C@H](C)O1 [Doxorubicin, reference compound]", "CC50": "9.36 µM"}

---

Each record here notes measured CC50.
- assay.name: in vitro
- reported.conditions: human
metric.name: CC50

{"compound": "C=C(C)[C@H]1Cc2c(ccc3c2O[C@@H]2COc4cc(OC)c(OC)cc4[C@@H]2C3O)O1 (stereo partly drawn) [Compound 3]", "result": "> 523 µM"}
{"compound": "COc1cc2c(cc1OC)C1Cc3ccc4c(c3O[C@@H]1CO2)C[C@H](C(C)C)O4 (stereo partly drawn) [Compound 7]", "result": "> 476 µM"}
{"compound": "COc1cc2c(cc1OC)[C@@H]1C(=O)c3ccc4c(c3O[C@@H]1CO2)C[C@H](C1(C)CO1)O4 (stereo partly drawn) [Compound 2]", "result": "> 505 µM"}

---

Below, each entry is listed alongside its reported EC50.
- Tested on: Plasmodium falciparum (chloroquine sensitive 3D7 strain)
- assay.name: microbe, parasite or virus in culture
- Type: cell-based
- reported.conditions: Plasmodium falciparum, 3D7, 72 h, total forms of P. falciparum 3D7, unsynchronized culture, 72 h; ± SD, n = 6 replicates; read-out: Biological activity CE50 Antiplasmodial

{"compound": "CCN(CC)CCCC(C)Nc1ccnc2cc(Cl)ccc12 (stereo not shown) [Chloroquine, reference compound]", "EC50": "0.06 µM"}
{"compound": "C=C(C)[C@H]1Cc2c(ccc3c2O[C@@H]2COc4cc(OC)c(OC)cc4[C@@H]2C3O)O1 (stereo partly shown) [Compound 3]", "EC50": "< 50 µM"}
{"compound": "COc1cc2c(cc1OC)C1Cc3ccc4c(c3O[C@@H]1CO2)C[C@H](C(C)C)O4 (stereo partly shown) [Compound 7]", "EC50": "< 50 µM"}
{"compound": "COc1cc2c(cc1OC)[C@@H]1C(=O)c3ccc4c(c3O[C@@H]1CO2)C[C@H](C1(C)CO1)O4 (stereo partly shown) [Compound 2]", "EC50": "< 50 µM"}
